- target: T1, CD96 extracellular region with His tag (CD96-His) (human, UniProt P40200 22-519)
- T1 construct: also called CD96-ECD-His; Bio-CD96-His (biotin-labelled form)
- T1 sequence: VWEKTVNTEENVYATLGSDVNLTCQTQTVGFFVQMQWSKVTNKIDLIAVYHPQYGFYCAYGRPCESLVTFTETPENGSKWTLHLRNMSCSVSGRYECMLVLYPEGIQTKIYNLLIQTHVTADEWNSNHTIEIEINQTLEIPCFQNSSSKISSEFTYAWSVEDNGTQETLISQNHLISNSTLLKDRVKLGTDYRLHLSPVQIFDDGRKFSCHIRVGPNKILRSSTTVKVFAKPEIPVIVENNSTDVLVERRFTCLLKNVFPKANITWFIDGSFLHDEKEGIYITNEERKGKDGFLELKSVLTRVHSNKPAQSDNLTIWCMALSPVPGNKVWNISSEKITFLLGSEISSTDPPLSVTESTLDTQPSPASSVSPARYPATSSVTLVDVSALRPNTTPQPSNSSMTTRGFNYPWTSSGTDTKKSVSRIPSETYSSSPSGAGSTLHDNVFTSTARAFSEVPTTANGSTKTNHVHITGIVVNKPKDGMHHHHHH
- measurement description: blocking cell ELISA: antibody premixed with Bio-CD96-His (0.5 ug/mL), binding to fixed CD155-CHO cells
pIC50: −log10 of the molar value.
Tag: true if measured pIC50 is not below 10, false if it is.

Answered examples (2):
>  <binder>
h1719-014 (antibody, V domains shown, Only variable regions are tied to this name; also called M719-014) VH: EVTLKESGPVLVKPTETLTLTCTVSGFSLSSYGVSWVRQPPGKGLEWLGVIWGDGNTNYHSVLISRLTISKDTSKSQVVLTLTNMDPVDTATYYCAKNYYYGSRYGYPLDYWGQGTTVTVSS VL: DIQMTQSPSSVSASVGDRVTITCKATQDVGTAVAWYQQKPGKSPKLLIYWASTRHTGVPERFSGSGSGTDFTLTISSLQPEDFATYFCQQYGSSVLTFGGGTKVEIK

>  <class>
true

$$$$
>  <binder>
h1722-010 (antibody, V domains shown, Only variable regions are tied to this name; also called M722-010) VH: EVQLVQSGAEVKKPGSSVKVSCKASGGTFSDYWMHWVRQAPGQGLEWIGMLHPNSGTTSFNEKFKIRVTITADKSTSTAYMELSSLRSEDTAVYYCASDYSGPFAYWGQGTLVTVSS VL: DIQLTQSPSSLSASVGDRVTITCSASSSVNYIHWYQQKPGKAPKRWIFDTSKLASGVPSRFSGSGSGTDYTLTISSLQPEDFATYYCQQWRSNPLTFGQGTKLEIK

>  <class>
false

$$$$

Now for a further binder.
Decide: pIC50 of h1722-006 (antibody, V domains shown, Only variable regions are tied to this name) VH: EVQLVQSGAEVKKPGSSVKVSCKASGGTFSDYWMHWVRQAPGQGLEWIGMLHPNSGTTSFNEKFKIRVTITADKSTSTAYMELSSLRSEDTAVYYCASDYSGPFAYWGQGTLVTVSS VL: DIQMTQSPSSLSASVGDRVTITCSASSSVNYIHWYQQKPGKAPKRWIYDTSKLASGVPSRFSGSGSGTDFTLTISSLQPEDFATYYCQQWRSNPLTFGQGTKLEIK >= 10?
false
